// data source = PubChem BioAssay AID1963851

Known viability, T/C of a selection of molecules
# Test system: 188146-221-R-J1-PDC complex spheroid viability;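 note: spheroids exposed to compounds for seven days; 100% = DMSO vehicle control viability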
# Assay: Anticancer human tumor 188146-221-R-J1-PDC patient-derived colon adenocarcinoma cell line growth inhibition [POLQ]
# Stated Conditions: second compound 1 µM; first compound 0.0316 µM; stronger effect = lower value
Parameter: viability, T/C (%)

INSERT INTO results (molecule, measurement_target, endpoint_result) VALUES
  ('COc1ccc([C@@H](O)c2cc(-c3ncnc4cc(N5CCOCC5)ccc34)c(F)cc2Cl)nn1 + Cc1cccc(N(C)C(=O)C2C(O)CCN2c2nc(C)cc(C(F)(F)F)c2C#N)c1', '188146-221-R-J1-PDC complex spheroid viability', 97.9),
  ('O=C(Nc1ccc(O)c(NS(=O)(=O)c2ccc(F)cc2)c1)c1ccc(-c2ccccc2)cc1 + COC1C(OC(N)=O)C(O)C(Oc2ccc3c(O)c(NC(=O)c4ccc(O)c(CC=C(C)C)c4)c(=O)oc3c2C)OC1(C)C', '188146-221-R-J1-PDC complex spheroid viability', 102),
  ('COc1cc(C2c3cc4c(cc3C(OC3OC5COC(C)OC5C(O)C3O)C3COC(=O)C23)OCO4)cc(OC)c1O (stereo not drawn) + Cc1cccc(N(C)C(=O)C2C(O)CCN2c2nc(C)cc(C(F)(F)F)c2C#N)c1', '188146-221-R-J1-PDC complex spheroid viability', 108);
